test system: B/Lee/40; type: cell-based, influenza B virus; settings: read-out: EC50 for influenza virus B/Lee/40
Property: EC50 (µM)
Answers are plain numbers, in µM.

The measured EC50 associated with Cc1cc2c(c(=S)[nH]1)C(=O)O/C2=C\c1ccoc1 [Compound 15m] reads 16.3

###

Give S.I. (selectivity index, CC50/EC50), B/Lee/40 for every item shown.
tested on: B/Lee/40; assay type: cell-based, influenza B virus

Molecule: Cc1cc2c(c(=S)[nH]1)C(=O)O/C2=C\c1cccs1 [Compound 15q]
Assay value: 7.0 ± 3.8 (>128.6)

Batch: S.I. (selectivity index, CC50/EC50), B/Lee/40 for all items listed.
1. Cc1cc2c(c(=S)[nH]1)C(=O)O/C2=C\c1ccc(C)s1 [Compound 15t]
2. Cc1cc2c(c(=S)[nH]1)C(=O)O/C2=C\c1ccsc1 [Compound 15j]
3. Cc1cc2c(c(=S)[nH]1)C(=O)O/C2=C\c1cc2ccccc2s1 [Compound 15g]
4. Cc1cc2c(c(=S)[nH]1)C(=O)O/C2=C\c1sccc1C [Compound 15s]
5. Cc1ccsc1/C=C1\OC(=O)c2c1cc(C)n(C)c2=S [Compound 15x]

Reply |
1: 9.6 ± 3.5 (>93.8); 2: 5.9 ± 2.0 (>152.5); 3: 18.4 ± 12.8 (>48.9); 4: 14.0 ± 7.4 (>64.3); 5: 8.0 ± 3.6 (>112.5)
